The reader will find log10 IC50 measurements below, all made with notum carboxyesterase enzyme (Homo sapiens (Human)).
reported.endpoint: log10 IC50 (log10 of the value in µM)

| compound | reported.endpoint | reported.result |
| --- | --- | --- |
| FC(F)(F)c1c(Cl)cnc(-n2ccnn2)c1Cl | log10 IC50 | -2.09 |
| CC(O)Cc1cn(-c2ccc(Cl)c(C(F)(F)F)c2Cl)nn1 (stereo not shown) | log10 IC50 | 0.12 |
| OCc1cn(-c2ccc3c(c2)OCCO3)nn1 | log10 IC50 | 1.65 |
| OCc1cn(-c2cc(Cl)cc(Cl)c2)nn1 | log10 IC50 | 0.48 |
| Fc1ccc(-c2cc[nH]n2)cc1F | log10 IC50 | 1.22 |
| O=C(O)c1cc(-c2ccc(Cl)cc2)c[nH]1 | log10 IC50 | 1.32 |
| Cn1nc(-c2ccc(Cl)c(C(F)(F)F)c2Cl)oc1=O | log10 IC50 | -1.17 |
| Cc1nnc(-c2ccc(Cl)c(C(F)(F)F)c2Cl)o1 | log10 IC50 | -1.57 |
| FC(F)(F)c1ccc(-c2c[nH]nn2)cc1C(F)(F)F | log10 IC50 | -2.10 |

###

measured.on: notum carboxyesterase enzyme (Homo sapiens (Human), UniProt Q6P988)
Sequence (Q6P988 20-496): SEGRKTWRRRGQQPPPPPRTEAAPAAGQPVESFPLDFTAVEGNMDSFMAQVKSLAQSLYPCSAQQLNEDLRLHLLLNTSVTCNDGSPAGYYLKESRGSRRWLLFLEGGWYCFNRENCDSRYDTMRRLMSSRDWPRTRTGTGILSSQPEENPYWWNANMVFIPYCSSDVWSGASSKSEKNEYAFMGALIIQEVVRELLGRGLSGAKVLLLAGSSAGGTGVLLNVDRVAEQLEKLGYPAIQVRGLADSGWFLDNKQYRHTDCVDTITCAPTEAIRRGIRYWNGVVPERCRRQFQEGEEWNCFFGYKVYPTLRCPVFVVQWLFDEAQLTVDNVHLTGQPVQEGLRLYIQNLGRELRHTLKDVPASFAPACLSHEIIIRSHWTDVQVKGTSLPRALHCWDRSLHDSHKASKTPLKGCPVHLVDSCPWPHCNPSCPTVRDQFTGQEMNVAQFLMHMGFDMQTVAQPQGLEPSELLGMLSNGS
protocol.notes: Biochemical Notum Enzymatic Activity Assay (OPTS substrate, fluorescence)
condition.label: 2 μM OPTS solution, 2.38 nM notum enzyme solution, 1 hour incubation at room temperature, fluorescence ex 485 nm / em 520 nm; n≥2
pIC50: −log10 of the molar value.
reported.endpoint: pIC50

| smiles.data | reported.result |
| --- | --- |
| OCc1cn(-c2ccc3ccccc3c2)nn1 | 5.89 |
| Clc1ccc(-c2n[nH]c(-c3ccccn3)n2)cc1Cl | 6.22 |
| NCc1nc(-c2ccc(Cl)cc2)no1 | 4.37 |
| O=c1cccc(-c2ccccc2)[nH]1 | 4.30 |
| Cc1ccc(-c2nnc(O)o2)cc1OC(F)(F)F | 7.44 |
| COc1nnc(-c2cccc(Cl)c2)o1 | 5.27 |
| OCc1cn(-c2ccc3c(c2)OCO3)nn1 | 4.43 |
| Nc1nnc(-c2ccccc2)o1 | 4.48 |
| OCCc1cn(-c2ccc(Cl)c(C(F)(F)F)c2)nn1 | 6.83 |
| OCc1nnc(-c2ccc(Cl)c(Cl)c2)o1 | 6.14 |
| FC(F)(F)c1cc(-c2c[nH]nn2)ccc1Cl | 7.71 |
| Clc1ccc(-n2ccnc2)cc1 | 5.29 |
| CNc1nnc(-c2ccc(Cl)c(C(F)(F)F)c2Cl)o1 | 7.50 |
| Cc1cn(-c2ccc(Cl)c(C(F)(F)F)c2Cl)nn1 | 6.97 |
| CC(=O)NCc1cn(-c2ccc(Cl)c(Cl)c2)nn1 | 4.71 |
| NCc1cc(-c2ccccc2)no1 | 4.94 |
| OCc1cn(-c2ccc(Cl)c(C(F)(F)F)c2Cl)nn1 | 8.02 |
| CN(C)c1nnc(-c2ccc(Cl)c(C(F)(F)F)c2Cl)o1 | 6.36 |

###

measured.on: notum carboxyesterase enzyme (Homo sapiens (Human), UniProt Q6P988)
pIC50: −log10 of the molar value.
Please mark yes if the recorded pIC50 is equal to or greater than 6, and no if it falls below.

| molecule | measured.on | class.assignment |
| --- | --- | --- |
| CC(O)c1cn(-c2ccc(Cl)c(C(F)(F)F)c2Cl)nn1 (stereo not shown) | notum carboxyesterase enzyme (Homo sapiens (Human), UniProt Q6P988) | no |
| Oc1nnc(-c2cccc(C(F)(F)F)n2)o1 | notum carboxyesterase enzyme (Homo sapiens (Human), UniProt Q6P988) | no |
| OCCCc1cn(-c2ccc(Cl)c(C(F)(F)F)c2)nn1 | notum carboxyesterase enzyme (Homo sapiens (Human), UniProt Q6P988) | no |
| Nc1nnc(-c2ccc(Cl)cc2)s1 | notum carboxyesterase enzyme (Homo sapiens (Human), UniProt Q6P988) | no |
| Cn1nc(-c2ccc(Cl)cc2)oc1=O | notum carboxyesterase enzyme (Homo sapiens (Human), UniProt Q6P988) | no |
| FC1CN(c2cc(-n3ccnn3)ccc2C(F)(F)F)C1 | notum carboxyesterase enzyme (Homo sapiens (Human), UniProt Q6P988) | yes |
| Clc1cccc(-c2cc[nH]n2)c1 | notum carboxyesterase enzyme (Homo sapiens (Human), UniProt Q6P988) | no |
| FC(F)(F)c1c(Cl)ccc(-c2c[nH]nn2)c1Cl | notum carboxyesterase enzyme (Homo sapiens (Human), UniProt Q6P988) | yes |
| FC(F)(F)c1cc(-n2ccnn2)cc(Cl)c1Cl | notum carboxyesterase enzyme (Homo sapiens (Human), UniProt Q6P988) | yes |
| COc1cc(-n2cc(CO)nn2)ccc1Cl | notum carboxyesterase enzyme (Homo sapiens (Human), UniProt Q6P988) | no |

###

measured.on: UniProtKB Q6P988
Where a name gives a salt, the structure may show the parent alone.
IC50 reference

| compound | measured.on | uom | IC50 |
| --- | --- | --- | --- |
| NCc1cn(-c2ccc(Cl)c(Cl)c2)nn1 | UniProtKB Q6P988 | µM | 8.82 |
| Nc1nnc(-c2ccc(Cl)cc2)o1 | UniProtKB Q6P988 | µM | 11.9 |
| CCOc1cccc(-c2nnc(N)s2)c1 | UniProtKB Q6P988 | µM | 85.9 |
| OCc1cn(-c2ccccc2Cl)nn1 | UniProtKB Q6P988 | µM | 39.1 |
| Oc1nnc(-c2ccc(C3CC3)nc2)o1 | UniProtKB Q6P988 | µM | 43.5 |
| CC(C)c1ccc(-n2cnnn2)cc1 | UniProtKB Q6P988 | µM | 21.4 |
| OCc1cn(-c2ccc(Cl)cc2Cl)nn1 | UniProtKB Q6P988 | µM | 7.2 |
| NCc1cn(-c2ccccc2)nn1 | UniProtKB Q6P988 | µM | 4.87 |
| CN(C)Cc1cn(-c2ccc(Cl)c(Cl)c2)nn1 [Compound 44, hydrochloride] | UniProtKB Q6P988 | µM | 74.5 |
| Clc1ccc(-c2ccno2)cc1 | UniProtKB Q6P988 | µM | 1.1 |

###

measured.on: notum carboxyesterase enzyme (Homo sapiens (Human))
pIC50: −log10 of the molar value. Counter-ions that a name gives are not always drawn.
Please mark class 1 if the recorded pIC50 is equal to or greater than 5, and class 0 if it falls below.

| molecule | measured.on | class.assignment |
| --- | --- | --- |
| OCc1cn(-c2ccc(Cl)c(C3CC3)c2)nn1 | notum carboxyesterase enzyme (Homo sapiens (Human)) | class 1 |
| Clc1ccc(-c2cc[nH]n2)cc1Cl | notum carboxyesterase enzyme (Homo sapiens (Human)) | class 1 |
| NCc1cc(-c2cccc(Cl)c2)no1 | notum carboxyesterase enzyme (Homo sapiens (Human)) | class 0 |
| NCc1cn(-c2cc(Cl)cc(Cl)c2)nn1 [Compound 36, hydrochloride] | notum carboxyesterase enzyme (Homo sapiens (Human)) | class 0 |
| N#Cc1nnc(-c2ccccc2)o1 | notum carboxyesterase enzyme (Homo sapiens (Human)) | class 0 |
| CC(C)(O)c1cn(-c2ccc(Cl)c(Cl)c2)nn1 | notum carboxyesterase enzyme (Homo sapiens (Human)) | class 0 |
| OCc1cn(-c2ccc(Cl)c(OCC3CC3)c2)nn1 | notum carboxyesterase enzyme (Homo sapiens (Human)) | class 0 |
| N#CNc1nnc(-c2ccc(Cl)c(C(F)(F)F)c2Cl)o1 | notum carboxyesterase enzyme (Homo sapiens (Human)) | class 1 |
| OCc1cn(-c2cc(Cl)ccc2Cl)nn1 | notum carboxyesterase enzyme (Homo sapiens (Human)) | class 0 |

###

measured.on: notum carboxyesterase enzyme (Homo sapiens (Human), UniProt Q6P988)
Where a name gives a salt, the structure may show the parent alone.
# note: exactly 1000 nM is not below, so it is NOT MET; use MET for IC50 strictly under it

| compound | class.assignment |
| --- | --- |
| OCc1cn(-c2cccc(C(F)(F)F)c2)nn1 | NOT MET |
| FC(F)(F)c1c(Cl)ccc(-n2cnnn2)c1Cl | MET |
| NCc1cn(-c2cccc(C(F)(F)F)c2)nn1 [Compound 38, hydrochloride] | NOT MET |
| Nc1nnc(-c2ccc(Cl)c(C(F)(F)F)c2Cl)o1 | MET |

Source listed as patent US11634391B2.
